Reported pIC50 is given for each of the following molecules.
- target: Estrogen receptor (Rattus norvegicus, UniProt P06211)
- Sequence (P06211 whole entry): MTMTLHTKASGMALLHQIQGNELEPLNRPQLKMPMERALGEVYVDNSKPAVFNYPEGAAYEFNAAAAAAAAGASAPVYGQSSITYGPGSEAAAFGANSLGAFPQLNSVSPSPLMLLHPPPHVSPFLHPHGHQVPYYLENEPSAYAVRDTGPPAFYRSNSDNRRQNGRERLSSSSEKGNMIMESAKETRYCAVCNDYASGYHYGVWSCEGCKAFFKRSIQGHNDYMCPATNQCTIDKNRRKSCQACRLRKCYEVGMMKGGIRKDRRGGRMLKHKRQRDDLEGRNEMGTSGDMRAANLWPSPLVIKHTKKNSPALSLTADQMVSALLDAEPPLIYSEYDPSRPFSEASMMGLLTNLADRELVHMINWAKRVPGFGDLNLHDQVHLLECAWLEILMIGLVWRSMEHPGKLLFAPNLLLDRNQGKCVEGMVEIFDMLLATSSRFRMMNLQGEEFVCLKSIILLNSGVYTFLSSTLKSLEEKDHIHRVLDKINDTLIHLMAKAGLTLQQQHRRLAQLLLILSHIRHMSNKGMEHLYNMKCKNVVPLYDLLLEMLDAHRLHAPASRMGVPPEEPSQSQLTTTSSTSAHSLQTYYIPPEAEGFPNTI
The scale used: pIC50 is minus the common logarithm of the concentration in molar units.

Before answering, review these 2 worked examples.
molecule	pIC50
C[C@]12CC[C@@H]3c4ccc(O)cc4C[C@@H](CCCCCCCCC[S+]([O-])CCCC(F)(F)C(F)(F)F)[C@H]3[C@@H]1CC[C@@H]2O (stereo partly drawn)	8.23
Oc1ccc(C2=Cc3ccc(O)cc3OC2)cc1	6.18

Let us examine a further case.
Query string: API: value(readout=pIC50, system=Estrogen receptor (Rattus norvegicus, UniProt P06211)) for record Oc1ccc2c(c1)OCC(c1ccccc1)C2 (stereo not drawn)
Result string: 5.44

====

- Tested on: Aorta
- procedureSummary: Vasorelaxant activity in Sprague-Dawley rat thoracic aorta assessed as inhibition of U46619-induced vascular tension at 100 uM pretreated for 30 mins
- Assay type: functional, tissue-based
The source made the active and inactive calls. The calls are words filed in the database; no cut-off is given here.
parameterMeasured: Activity

In the examples that follow, each entry is paired with its recorded Activity.
compound	target	Activity
Oc1ccc2c(c1)OCC(c1ccccc1)C2 (stereo not given)	Aorta	Active
Oc1ccc(C2=Cc3ccc(O)cc3OC2)cc1	Aorta	Active
Oc1ccc(C2COc3ccccc3C2)cc1 (stereo not given)	Aorta	Active
c1ccc(C2COc3ccccc3C2)cc1 (stereo not given)	Aorta	Active

Query string: Give the reported Activity for Oc1ccc(C2COc3cc(O)ccc3C2)cc1 (racemic) (system: Aorta).
Result string: Active
